- study-system: Adrenergic receptor alpha-1 (Rattus norvegicus, UniProt P15823+P23944+P43140)
- experiment-notes: Inhibition of alpha-1 adrenergic receptor isolated from rat ventricle homogenates
So basically, if IC50 comes in under 20 µM it's yes, and if it's 20 µM or more it's no.

# molecule, class-assignment
records = [
    ("OC(CNc1ccccc1I)CON=C(C1CC1)C1CC1 (stereo not given)", "no"),
    ("OC(CNc1nc2ccccc2[nH]1)CON=C(C1CC1)C1CC1 (stereo not given)", "no"),
    ("CC(C)(Cc1ccc(NCC(O)CON=C(C2CC2)C2CC2)cc1)[N+](=O)[O-] (stereo not given)", "yes"),
    ("Oc1ccc(NCC(O)CON=C(C2CC2)C2CC2)cc1 (stereo not given)", "no"),
    ("OC(CNc1ccc(Cl)cc1)CON=C(C1CC1)C1CC1 (stereo not given)", "yes"),
    ("OC(CNc1cccc(I)c1)CON=C(C1CC1)C1CC1 (stereo not given)", "no"),
    ("Cc1ccnc(NCC(O)CON=C(C2CC2)C2CC2)c1 (stereo not given)", "yes"),
    ("OC(CNc1ccc(Br)cc1)CON=C(C1CC1)C1CC1 (stereo not given)", "yes"),
    ("OC(CNc1ccc(C(F)(F)F)cc1)CON=C(C1CC1)C1CC1 (stereo not given)", "no"),
    ("CCOC(=O)c1ccc(NCC(O)CON=C(C2CC2)C2CC2)cc1 (stereo not given)", "no"),
    ("OC(CNc1ccc(F)cc1)CON=C(C1CC1)C1CC1 (stereo not given)", "no"),
    ("Cc1cccc(NCC(O)CON=C(C2CC2)C2CC2)c1 (stereo not given)", "no"),
    ("OC(CNc1nc2ccccc2s1)CON=C(C1CC1)C1CC1 (stereo not given)", "no"),
    ("Cc1ccccc1NCC(O)CON=C(C1CC1)C1CC1 (stereo not given)", "no"),
    ("OC(CNc1ccc(-c2ccccc2)cc1)CON=C(C1CC1)C1CC1 (stereo not given)", "yes"),
    ("CCCCc1ccc(NCC(O)CON=C(C2CC2)C2CC2)cc1 (stereo not given)", "no"),
    ("OC(CNc1ccccc1)CON=C(C1CC1)C1CC1 (stereo not given)", "yes"),
    ("O=[N+]([O-])c1ccc(NCC(O)CON=C(C2CC2)C2CC2)cc1 (stereo not given)", "yes"),
    ("OC(CNc1ccccc1-c1ccccc1)CON=C(C1CC1)C1CC1 (stereo not given)", "no"),
    ("OC(CNc1ccccn1)CON=C(C1CC1)C1CC1 (stereo not given)", "no"),
    ("OC(CNc1ccc(I)cc1)CON=C(C1CC1)C1CC1 (stereo not given)", "no"),
    ("O=C(O)c1ccc(NCC(O)CON=C(C2CC2)C2CC2)cc1 (stereo not given)", "no"),
    ("CC(C)(C)c1ccc(NCC(O)CON=C(C2CC2)C2CC2)cc1 (stereo not given)", "no"),
    ("Cc1ccc(NCC(O)CON=C(C2CC2)C2CC2)cc1 (stereo not given)", "yes"),
    ("OC(CNc1ccncc1)CON=C(C1CC1)C1CC1 (stereo not given)", "no"),
]
